measurement notes: In-vivo pharmacokinetic studies
assay conditions: Mean, read-out: T1/2
property measured: half-life (h)
Answers are plain numbers, in h.

Please list half-life recorded for the compound O=C1NC(=O)C(=Cc2cn(CCCCCCn3c4ccccc4c(=O)c4ccccc43)c3ccccc23)C(=O)N1 [Compound 1]
8.95

----------
measurement notes: In-vivo pharmacokinetic studies
assay conditions: Animal 1
property measured: Tmax (min)
Numbers only, in min.

Tell me its Tmax given O=C1NC(=O)C(=Cc2cn(CCCCCCn3c4ccccc4c(=O)c4ccccc43)c3ccccc23)C(=O)N1 as the entry.
30

----------
measurement notes: In-vivo pharmacokinetic studies
assay conditions: Animal 1, read-out: T1/2
property measured: half-life (h)
Numbers only, in h.

Report half-life for O=C1NC(=O)C(=Cc2cn(CCCCCCn3c4ccccc4c(=O)c4ccccc43)c3ccccc23)C(=O)N1
11.2
